Where do the numbers come from? From patent US20170369470A1.

System: Z138 cells
ASSAY REMARKS: MTT cell proliferation assay, Z138 cells
Type: cell-based
PROTOCOL CONDITIONS: Homo sapiens, Z-138; Z138 cells (mantle cell lymphoma line); incubation approximately 64-72 hours

COMPOUND: CC1(F)CCN(C(=O)c2ccc(-c3cc(C(F)(F)F)c4sc(CNC(=O)/C=C/c5ccc(N)nc5)cc4c3)cc2)C1 (stereo not drawn)
IC50: 1000 to 5000 nM
--
COMPOUND: Nc1ccc(/C=C/C(=O)NCc2cc3cc(-c4ccc(C(=O)N5CC(F)(F)C5)cn4)cc(C(F)(F)F)c3s2)cn1
IC50: < 1000 nM
--
COMPOUND: Nc1ccc(/C=C/C(=O)NCc2cc3cc(-c4ccc(C(=O)N5CCOCC5)cc4)cc(Cl)c3s2)cn1
IC50: < 1000 nM
--
COMPOUND: Nc1ccc(/C=C/C(=O)NCc2cc3cc(-c4ccc(C(=O)N5CCC(F)(F)CC5)cn4)cc(C(F)(F)F)c3[nH]2)cn1
IC50: > 10000 nM
--
COMPOUND: Nc1ccc(/C=C/C(=O)NCc2cc3cc(-c4ccc(C(=O)N5CCC(F)(F)C5)cn4)cc(C(F)(F)F)c3s2)cn1
IC50: 1000 to 5000 nM
--
COMPOUND: CC1(C)COCCN1C(=O)c1ccc(-c2cc(C(F)(F)F)c3sc(CNC(=O)/C=C/c4ccc(N)nc4)cc3c2)nc1
IC50: 1000 to 5000 nM
--
COMPOUND: Nc1ccc(/C=C/C(=O)NCc2nc3cc(-c4ccc(C(=O)N5CCC(F)(F)CC5)cn4)cc(C(F)(F)F)c3s2)cn1
IC50: < 1000 nM
--
COMPOUND: Nc1ccc(/C=C/C(=O)NCc2cc3cc(-c4ccc(C(=O)N5CC(F)(F)C5)cc4)cc(C(F)(F)F)c3s2)cn1
IC50: > 10000 nM
--
COMPOUND: Nc1ccc(/C=C/C(=O)NCc2cc3cc(-c4ccc(C(=O)N5CC6(COC6)C5)cn4)cc(C(F)(F)F)c3s2)cn1
IC50: < 1000 nM
--
COMPOUND: Nc1ccc(/C=C/C(=O)NCc2cc3cc(-c4ccc(C(=O)N5CC[C@H](F)C5)cn4)cc(C(F)(F)F)c3s2)cn1
IC50: 1000 to 5000 nM
--
COMPOUND: Nc1ccc(/C=C/C(=O)NCc2cc3cc(-c4ccc(C(=O)N5CCC(F)(F)CC5)cc4)cc(-c4ccc(F)cc4)c3s2)cn1
IC50: < 1000 nM
--
COMPOUND: CC1(O)CCN(C(=O)c2ccc(-c3cc(C(F)(F)F)c4sc(CNC(=O)/C=C/c5ccc(N)nc5)cc4c3)cc2)CC1
IC50: < 1000 nM
--
COMPOUND: Nc1ccc(/C=C/C(=O)NCc2cc3cc(-c4ccc(C(=O)N5CC6(C5)CC(F)(F)C6)cc4)cc(C(F)(F)F)c3s2)cn1
IC50: 1000 to 5000 nM
--
COMPOUND: Nc1ccc(/C=C/C(=O)NCCc2cc3cc(-c4ccc(C(=O)N5CCC(F)(F)CC5)cn4)cc(C(F)(F)F)c3s2)cn1
IC50: < 1000 nM
--
COMPOUND: Nc1ccc(/C=C/C(=O)NCc2cc3cc(-c4ccc(C(=O)N5CC6(C5)CC(F)(F)C6)cn4)cc(C(F)(F)F)c3s2)cn1
IC50: < 1000 nM
--
COMPOUND: Nc1ccc(/C=C/C(=O)NCc2cc3cc(-c4ccc(C(=O)N5CCC(O)(C(F)(F)F)CC5)cn4)cc(C(F)(F)F)c3s2)cn1
IC50: 1000 to 5000 nM
--
COMPOUND: Nc1ccc(/C=C/C(=O)NCc2cc3cc(-c4ccc(C(=O)N5CCC(F)(F)CC5)cn4)cc(C(F)(F)F)c3s2)cn1
IC50: 1000 to 5000 nM
--
COMPOUND: Nc1ccc(/C=C/C(=O)NCc2cc3cc(-c4ccc(C(=O)N5CCC(F)(F)C5)cc4)cc(C(F)(F)F)c3s2)cn1
IC50: 1000 to 5000 nM
